molecular target: Endothelin-1 receptor (Homo sapiens, UniProt P25101); note: assay procedure not described here
Sequence (P25101 whole entry): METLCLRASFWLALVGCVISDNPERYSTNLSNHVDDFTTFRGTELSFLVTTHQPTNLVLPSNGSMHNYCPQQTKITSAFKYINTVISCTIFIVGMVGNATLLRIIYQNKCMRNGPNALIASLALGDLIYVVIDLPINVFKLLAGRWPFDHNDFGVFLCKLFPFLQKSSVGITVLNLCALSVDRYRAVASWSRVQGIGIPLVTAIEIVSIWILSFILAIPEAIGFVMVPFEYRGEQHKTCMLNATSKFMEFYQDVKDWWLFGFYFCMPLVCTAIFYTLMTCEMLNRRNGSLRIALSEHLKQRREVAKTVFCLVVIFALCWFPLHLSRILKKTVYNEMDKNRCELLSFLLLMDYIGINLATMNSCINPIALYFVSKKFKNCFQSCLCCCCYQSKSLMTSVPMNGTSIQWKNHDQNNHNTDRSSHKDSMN
VALUE_TYPE: AC50

[ask] Output reported AC50 of the compound CN(CCOc1ccc(NS(C)(=O)=O)cc1)CCc1ccc(NS(C)(=O)=O)cc1 [DOFETILIDE] on Endothelin-1 receptor (Homo sapiens, UniProt P25101).
[reply] > 30 µM

[ask] Give AC50; test system Endothelin-1 receptor (Homo sapiens, UniProt P25101); compound COc1ccc(C(=O)NCc2ccc(OCCN(C)C)cc2)cc1OC [ITOPRIDE]; note: assay procedure not described here
[reply] > 30 µM

[ask] Lab note: Endothelin-1 receptor (Homo sapiens, UniProt P25101) assay, enter AC50 for `COC(=O)[C@H]1[C@@H](OC(=O)c2ccccc2)C[C@@H]2CC[C@H]1N2C` here
[reply] > 30 µM

[ask] # lookup: Endothelin-1 receptor (Homo sapiens, UniProt P25101) AC50, key = `CCCCCN(C)CCC(O)(P(=O)(O)O)P(=O)(O)O`
[reply] > 30 µM

[ask] Give the observed AC50 of CCCCN1CCCCC1C(=O)Nc1c(C)cccc1C (centres undefined) for Endothelin-1 receptor (Homo sapiens, UniProt P25101).
[reply] > 30 µM

[ask] Give AC50 for this entry on Endothelin-1 receptor (Homo sapiens, UniProt P25101): `O=C1NCCN1CCN1CCC(c2cn(-c3ccc(F)cc3)c3ccc(Cl)cc23)CC1`
[reply] > 30 µM

[ask] Tell me AC50 of `O=C(O)Cc1cn(-c2ccccc2)nc1-c1ccc(Cl)cc1` when tested on Endothelin-1 receptor (Homo sapiens, UniProt P25101). Note: assay procedure not described here.
[reply] > 30 µM

[ask] State measured AC50 of the compound `CNC(=O)c1cc(Oc2ccc(NC(=O)Nc3ccc(Cl)c(C(F)(F)F)c3)cc2)ccn1` with Endothelin-1 receptor (Homo sapiens, UniProt P25101).
[reply] > 30 µM

[ask] # return AC50 of `COc1ccc(C(=O)N2CCN(c3ccc4c(c3)CCC(=O)N4)CC2)cc1OC` (system: Endothelin-1 receptor (Homo sapiens, UniProt P25101)); note: assay procedure not described here
[reply] > 30 µM

[ask] Please look at `NC(N)=Nc1nc(CSCCC(N)=NS(N)(=O)=O)cs1` and tell me its recorded AC50 on Endothelin-1 receptor (Homo sapiens, UniProt P25101).
[reply] > 30 µM

[ask] Give the observed AC50 of `CC(C)NNC(=O)c1ccncc1` for Endothelin-1 receptor (Homo sapiens, UniProt P25101).
[reply] > 30 µM

[ask] Determine reported AC50 for `Cc1c(O)c(=O)ccn1C` ; test system: Endothelin-1 receptor (Homo sapiens, UniProt P25101). Note: assay procedure not described here.
[reply] > 30 µM

[ask] Look up and report AC50, with Endothelin-1 receptor (Homo sapiens, UniProt P25101) as system, for `NC(=O)c1ncn([C@@H]2O[C@H](CO)[C@@H](O)[C@H]2O)c1O`
[reply] > 30 µM

[ask] Provide the reported AC50 (system: Endothelin-1 receptor (Homo sapiens, UniProt P25101)) for `CCC[C@@H]1C[C@@H](C(=O)N[C@@H]([C@H]2O[C@H](SC)[C@H](O)[C@@H](O)[C@H]2O)[C@H](C)Cl)N(C)C1`; note: assay procedure not described here
[reply] > 30 µM

[ask] Specify the recorded AC50 for N[C@@H](C(=O)N[C@@H]1C(=O)N2C(C(=O)O)=C(Cl)CS[C@H]12)c1ccccc1 [CEFACLOR ANHYDROUS] , system: Endothelin-1 receptor (Homo sapiens, UniProt P25101). Note: assay procedure not described here.
[reply] > 30 µM

[ask] Determine reported AC50 for `CCCCCCCCCCCC[N+](C)(C)CCOc1ccccc1` ; test system: Endothelin-1 receptor (Homo sapiens, UniProt P25101). Note: assay procedure not described here.
[reply] > 30 µM

[ask] Given Cc1cccc(C)c1OCC(C)N (centres undefined) , report its AC50 on Endothelin-1 receptor (Homo sapiens, UniProt P25101).
[reply] > 30 µM

[ask] // fetch AC50; item: CN1CCCC(n2nc(Cc3ccc(Cl)cc3)c3ccccc3c2=O)CC1 (centres undefined) ; system: Endothelin-1 receptor (Homo sapiens, UniProt P25101); note: assay procedure not described here
[reply] > 30 µM

[ask] Consider the compound NC(=O)C[S+]([O-])C(c1ccccc1)c1ccccc1 (centres undefined) tested on Endothelin-1 receptor (Homo sapiens, UniProt P25101); state its AC50. Note: assay procedure not described here.
[reply] > 30 µM

Ref: ChEMBL document CHEMBL5291721
